# experimentalDetails: Binding affinity to 5'-FPu22T-3'-labelled c-myc G-quadruplex DNA (unknown origin) assessed as change in melting temperature by FRET assay
experimentalEndpoint: ΔTm (°C)

> print(dat)
                                        mol  testvalue
1  CCN(CC)CCNCCOc1ccc(Nc2nc(-c3ccccc3O)nc3ccccc23)cc1        0.4
2  CCN(CC)CCCCC(=O)Nc1ccc(Nc2nc(-c3ccccc3NC(=O)CCCCN(CC)CC)nc3ccccc23)cc1       13.1
3  CCN(CC)CCNCCC(=O)Nc1ccc(Nc2nc(-c3ccccc3NC(=O)CCNCCN(CC)CC)nc3ccccc23)cc1         18

Each recorded value in this set is attributed to ChEMBL document CHEMBL3865800.
